// provenance: BindingDB's records for doi:10.1021/jm300345z

Molecular target: Excitatory amino acid transporter 1 (Homo sapiens)
Sequence (P43003 whole entry): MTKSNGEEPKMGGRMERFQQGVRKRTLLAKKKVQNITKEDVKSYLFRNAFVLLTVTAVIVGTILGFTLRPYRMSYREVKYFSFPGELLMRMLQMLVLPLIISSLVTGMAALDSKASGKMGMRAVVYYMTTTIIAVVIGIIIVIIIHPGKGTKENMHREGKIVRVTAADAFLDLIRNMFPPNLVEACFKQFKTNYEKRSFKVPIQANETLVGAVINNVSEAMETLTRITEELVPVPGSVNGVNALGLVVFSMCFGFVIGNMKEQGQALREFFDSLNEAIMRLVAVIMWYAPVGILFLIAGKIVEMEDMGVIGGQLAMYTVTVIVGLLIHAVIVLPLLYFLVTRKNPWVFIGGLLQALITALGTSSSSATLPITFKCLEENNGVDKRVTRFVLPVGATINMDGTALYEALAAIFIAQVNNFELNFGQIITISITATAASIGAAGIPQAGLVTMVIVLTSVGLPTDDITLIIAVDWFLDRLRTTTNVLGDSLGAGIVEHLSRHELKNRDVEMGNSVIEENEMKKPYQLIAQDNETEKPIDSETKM
Assay: Inhibition of human EAAT1 expressed in HEK293 cells assessed as inhibition of 3[H]-D-Aspartate uptake after 6 mins by scintillation counting method
pIC50: −log10 of the molar value.

# Molecule, pIC50
records = [
    ("N#CC1C(=N)OC2=C(C(=O)CN(C(=O)c3ccccc3)C2)C1c1ccccc1 (stereo not drawn)", "< 4.00"),
    ("N#CC1C(=N)OC2=C(C(=O)CN(c3ccccc3)C2)C1c1ccccc1 (stereo not drawn)", "< 4.00"),
    ("CC1(C)C2=C(CC(c3ccccc3)CC2=O)OC(=N)C1C#N (stereo not drawn)", "< 3.52"),
]
